Target: PSMA-expressing LNCaP cells (Homo sapiens, UniProt Q04609)
Construct: PSMA-expressing LNCaP cells; endogenous in cells; host or cells: LNCaP
Sequence (Q04609 whole entry): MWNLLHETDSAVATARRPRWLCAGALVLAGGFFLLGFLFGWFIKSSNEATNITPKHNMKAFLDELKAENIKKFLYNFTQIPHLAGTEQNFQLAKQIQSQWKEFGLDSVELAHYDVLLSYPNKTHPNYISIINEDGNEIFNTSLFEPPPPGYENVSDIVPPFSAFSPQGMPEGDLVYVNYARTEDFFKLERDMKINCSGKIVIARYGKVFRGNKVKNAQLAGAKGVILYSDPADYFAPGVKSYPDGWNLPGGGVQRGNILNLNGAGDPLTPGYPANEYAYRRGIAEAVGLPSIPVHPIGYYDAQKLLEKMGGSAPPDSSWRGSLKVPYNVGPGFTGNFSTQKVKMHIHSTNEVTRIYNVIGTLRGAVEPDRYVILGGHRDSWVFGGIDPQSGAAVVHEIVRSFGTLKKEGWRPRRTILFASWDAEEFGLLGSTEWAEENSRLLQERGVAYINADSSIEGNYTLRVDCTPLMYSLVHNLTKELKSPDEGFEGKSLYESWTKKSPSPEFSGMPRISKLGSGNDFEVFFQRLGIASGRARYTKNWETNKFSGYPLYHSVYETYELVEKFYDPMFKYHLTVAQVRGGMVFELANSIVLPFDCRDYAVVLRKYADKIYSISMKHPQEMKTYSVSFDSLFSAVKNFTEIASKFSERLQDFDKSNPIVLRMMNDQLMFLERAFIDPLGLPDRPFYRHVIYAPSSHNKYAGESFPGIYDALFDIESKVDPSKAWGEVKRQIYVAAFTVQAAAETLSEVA
Assay: Binding competition assay against 3H-PSMA-617 on LNCaP cells
Conditions: LNCaP cells; 10 nM 3H-PSMA-617; competing non-radiolabeled compound 10 nM; 2 h at 37° C.; triplicates
I'd appreciate it if you could supply % remaining 3H-PSMA-617 @ 10 nM (mean) values for the items below.
Just the number in %, nothing appended.

For the compound Cc1cc(C(=O)NCCN(CCCN(CCNC(=O)c2cc(C)n(CC(=O)O)c(=O)c2O)CCNC(=O)c2cc(C)n(CC(=O)NC[C@H]3CC[C@H](C(=O)N[C@@H](Cc4ccc5ccccc5c4)C(=O)NCCCC[C@H](NC(=O)N[C@@H](CCC(=O)O)C(=O)O)C(=O)O)CC3)c(=O)c2O)CCNC(=O)c2cc(C)n(CC(=O)NC[C@H]3CC[C@H](C(=O)N[C@@H](Cc4ccc5ccccc5c4)C(=O)NCCCC[C@H](NC(=O)N[C@@H](CCC(=O)O)C(=O)O)C(=O)O)CC3)c(=O)c2O)c(O)c(=O)n1CC(=O)O [1-C dimer] , give its reported % remaining 3H-PSMA-617 @ 10 nM (mean).
39

For the compound O=C(O)CC[C@H](NC(=O)N[C@@H](CCCCNC(=O)[C@H](Cc1ccc2ccccc2c1)NC(=O)[C@H]1CC[C@H](CNC(=O)COCC(=O)NCCOCCOCCOCCOCCOCCOCCOCCOCCOCCOCCOCCNC(=O)COCC(=O)Nc2ccc(CC(CN(CCNC(=O)c3ccn(CCO)c(=O)c3O)CCNC(=O)c3ccn(CCO)c(=O)c3O)CN(CCNC(=O)c3ccn(CCO)c(=O)c3O)CCNC(=O)c3ccn(CCO)c(=O)c3O)cc2)CC1)C(=O)O)C(=O)O [Example 1-PEG] , give its reported % remaining 3H-PSMA-617 @ 10 nM (mean).
80

For the compound O=C(O)CC[C@H](NC(=O)N[C@@H](CCCCNC(=O)[C@H](Cc1ccc2ccccc2c1)NC(=O)[C@H]1CC[C@H](CNC(=O)C[N+]23CC[N+]45CC[N+]67CC[N+]8(CC2)CC(=O)[O][Th]3486([O]C(=O)C5)[O]C(=O)C7)CC1)C(=O)O)C(=O)O (stereo partly shown) [Example 1-B-232Th] , give its reported % remaining 3H-PSMA-617 @ 10 nM (mean).
71

For the compound CNc1cc(CC(NC(=O)C2CCC(CNC(=O)Cn3c(C)cc(C(=O)NCCN(CCCN(CCNC(=O)c4cc(C)n(CC(=O)O)c(=O)c4O)CCNC(=O)c4cc(C)n(CC(=O)NCC5CCC(C(=O)NC(Cc6cc(NC)c7ccccc7c6)C(=O)NCCCCC(NC(=O)NC(CCC(=O)O)C(=O)O)C(=O)O)CC5)c(=O)c4O)CCNC(=O)c4cc(C)n(CC(=O)O)c(=O)c4O)c(O)c3=O)CC2)C(=O)NCCCCC(NC(=O)NC(CCC(=O)O)C(=O)O)C(=O)O)cc2ccccc12 (stereo not shown) [37-C dimer] , give its reported % remaining 3H-PSMA-617 @ 10 nM (mean).
64

---

Experiment: Biodistribution study in LNCaP tumor-bearing mice (Th227 counted in organs)
Type: in vivo, SCID mice
Conditions: 96 h; 1500 kBq/kg
I'd appreciate it if you could supply Th-227 in Tumor values for the items below.
Just the number in % ID Th-227/g organ, nothing appended.

For the compound Cc1cc(C(=O)NCCN(CCCN(CCNC(=O)c2cc(C)n(CC(=O)O)c(=O)c2[O-])CCNC(=O)c2cc(C)n(CC(=O)NCC3CCC(C(=O)NC(Cc4cnc5ccccc5c4)C(=O)NCCCCC(NC(=O)NC(CCC(=O)O)C(=O)O)C(=O)O)CC3)c(=O)c2[O-])CCNC(=O)c2cc(C)n(CC(=O)NCC3CCC(C(=O)NC(Cc4cnc5ccccc5c4)C(=O)NCCCCC(NC(=O)NC(CCC(=O)O)C(=O)O)C(=O)O)CC3)c(=O)c2[O-])c([O-])c(=O)n1CC(=O)O.[227Th+4] (stereo not shown) [Example 22-C dimer-227Th] , give its reported Th-227 in Tumor.
0.66

For the compound O=C([O-])CN1CCN(CC(=O)[O-])CCN(CC(=O)NCC2CCC(C(=O)NC(Cc3ccc4ccccc4c3)C(=O)NCCCCC(NC(=O)NC(CCC(=O)O)C(=O)O)C(=O)O)CC2)CCN(CC(=O)[O-])CC1.[227Th+4] [Example 1-B-D-227Th] , give its reported Th-227 in Tumor.
1.05

For the compound O=C([O-])CN1CCN(CC(=O)[O-])CCN(CC(=O)NCC2CCC(C(=O)NC(Cc3ccc4ccccc4c3)C(=O)NCCCCC(NC(=O)NC(CCC(=O)O)C(=O)O)C(=O)O)CC2)CCN(CC(=O)[O-])CC1.[227Th+4] (stereo not shown) [Example 1-B-227Th] , give its reported Th-227 in Tumor.
10.02

For the compound O=C([O-])CN1CCN(CC(=O)[O-])CCN(CC(=O)NCc2ccc(C(=O)N[C@@H](Cc3ccc4ccccc4n3)C(=O)NCCCC[C@H](NC(=O)N[C@@H](CCC(=O)O)C(=O)O)C(=O)O)nc2)CCN(CC(=O)[O-])CC1.[227Th+4] [Example 34-B-227Th] , give its reported Th-227 in Tumor.
9.97

---

I'd appreciate it if you could supply Th-227 in salivary glands values for the items below.
Experiment: Biodistribution study in LNCaP tumor-bearing mice (Th227 counted in organs)
Type: in vivo, SCID mice
Conditions: 1 hr; 1500 kBq/kg
Quick note: number first, unit second.

For the compound O=C([O-])CN1CCN(CC(=O)[O-])CCN(CC(=O)NCC2CCC(C(=O)NC(Cc3ccc4ccccc4c3)C(=O)NCCCCC(NC(=O)NC(CCC(=O)O)C(=O)O)C(=O)O)CC2)CCN(CC(=O)[O-])CC1.[227Th+4] (stereo not shown) [Example 1-B-227Th] , give its reported Th-227 in salivary glands.
1.62% ID Th-227/g organ

For the compound O=C([O-])CN1CCN(CC(=O)[O-])CCN(CC(=O)NCC2CCC(C(=O)NC(Cc3ccc4ccccc4c3)C(=O)NCCCCC(NC(=O)NC(CCC(=O)O)C(=O)O)C(=O)O)CC2)CCN(CC(=O)[O-])CC1.[227Th+4] [Example 1-B-D-227Th] , give its reported Th-227 in salivary glands.
0.52% ID Th-227/g organ

For the compound Cc1cc(C(=O)NCCN(CCCN(CCNC(=O)c2cc(C)n(CC(=O)O)c(=O)c2[O-])CCNC(=O)c2cc(C)n(CC(=O)NCC3CCC(C(=O)NC(Cc4cnc5ccccc5c4)C(=O)NCCCCC(NC(=O)NC(CCC(=O)O)C(=O)O)C(=O)O)CC3)c(=O)c2[O-])CCNC(=O)c2cc(C)n(CC(=O)NCC3CCC(C(=O)NC(Cc4cnc5ccccc5c4)C(=O)NCCCCC(NC(=O)NC(CCC(=O)O)C(=O)O)C(=O)O)CC3)c(=O)c2[O-])c([O-])c(=O)n1CC(=O)O.[227Th+4] (stereo not shown) [Example 22-C dimer-227Th] , give its reported Th-227 in salivary glands.
0.69% ID Th-227/g organ

For the compound O=C([O-])CN1CCN(CC(=O)[O-])CCN(CC(=O)NCc2ccc(C(=O)N[C@@H](Cc3ccc4ccccc4n3)C(=O)NCCCC[C@H](NC(=O)N[C@@H](CCC(=O)O)C(=O)O)C(=O)O)nc2)CCN(CC(=O)[O-])CC1.[227Th+4] [Example 34-B-227Th] , give its reported Th-227 in salivary glands.
1.75% ID Th-227/g organ

---

I'd appreciate it if you could supply Th-227 in large intestine values for the items below.
Assay: Biodistribution study in LNCaP tumor-bearing mice (Th227 counted in organs)
Format: in vivo, SCID mice
Details: 4 hr; 1500 kBq/kg
Just the number in % ID Th-227/g organ, nothing appended.

For the molecule O=C([O-])CN1CCN(CC(=O)[O-])CCN(CC(=O)NCC2CCC(C(=O)NC(Cc3ccc4ccccc4c3)C(=O)NCCCCC(NC(=O)NC(CCC(=O)O)C(=O)O)C(=O)O)CC2)CCN(CC(=O)[O-])CC1.[227Th+4] (stereo not shown) [Example 1-B-227Th] , give its reported Th-227 in large intestine.
0.76

For the molecule Cc1cc(C(=O)NCCN(CCCN(CCNC(=O)c2cc(C)n(CC(=O)O)c(=O)c2[O-])CCNC(=O)c2cc(C)n(CC(=O)NCC3CCC(C(=O)NC(Cc4cnc5ccccc5c4)C(=O)NCCCCC(NC(=O)NC(CCC(=O)O)C(=O)O)C(=O)O)CC3)c(=O)c2[O-])CCNC(=O)c2cc(C)n(CC(=O)NCC3CCC(C(=O)NC(Cc4cnc5ccccc5c4)C(=O)NCCCCC(NC(=O)NC(CCC(=O)O)C(=O)O)C(=O)O)CC3)c(=O)c2[O-])c([O-])c(=O)n1CC(=O)O.[227Th+4] (stereo not shown) [Example 22-C dimer-227Th] , give its reported Th-227 in large intestine.
0.29

For the molecule O=C([O-])CN1CCN(CC(=O)[O-])CCN(CC(=O)NCc2ccc(C(=O)N[C@@H](Cc3ccc4ccccc4n3)C(=O)NCCCC[C@H](NC(=O)N[C@@H](CCC(=O)O)C(=O)O)C(=O)O)nc2)CCN(CC(=O)[O-])CC1.[227Th+4] [Example 34-B-227Th] , give its reported Th-227 in large intestine.
0.79

For the molecule O=C([O-])CN1CCN(CC(=O)[O-])CCN(CC(=O)NCC2CCC(C(=O)NC(Cc3ccc4ccccc4c3)C(=O)NCCCCC(NC(=O)NC(CCC(=O)O)C(=O)O)C(=O)O)CC2)CCN(CC(=O)[O-])CC1.[227Th+4] [Example 1-B-D-227Th] , give its reported Th-227 in large intestine.
0.17
